Tested on: primary rat mixed cortical cells
Test: In vitro myelination assay (MBP positive myelin strands, fold myelin pixels above background)
Assay type: cell-based
Details: Rattus norvegicus, 10.0 μM compound, relative to baseline of no added compound; read-out: Fold myelin pixels above background, 10.0 μM
Text: In Vitro Myelination Assay Compounds were screened for their ability to induce myelination using a primary rat mixed cortical cell culture assay, which contains neurons, oligodendrocyte precursor cells, oligodendrocytes, astrocytes and microglia. […] The myelin strands were quantitated using a custom created myelin detection software program. […]
The entries below come with measured fold induction at 10 µM values attached.

Worked cases, answers included:
CCc1cc(Nc2ncn(-c3ccc(F)c(F)c3)n2)cc(N2CCN(C3COC3)CC2)c1 :: 10 to 100
Cc1cc(Nc2ncn(-c3cc(F)ccc3F)n2)cc(N2CCC(C3COC3)CC2)c1 :: 1 to 10
Cc1cc(Nc2ncn(-c3ccc(F)c(F)c3)n2)cc(NC2CCN(C3COC3)C2)c1 (stereo not shown) :: ≤ 1
Fc1ccc(-n2cnc(Nc3cc(C4CC4)nc(N4CCCCC4)c3)n2)cc1F :: 100 to 1000
C1=C(c2cc(Nc3ncn(-c4ccccc4)n3)cc(C3=CCOC3)c2)COC1 :: 100 to 1000
Cc1cc(Nc2ncn(-c3cc(F)cc(F)c3)n2)cc(N2CCN(C)C(C)C2)c1 (stereo not shown) :: 10 to 100
Fc1cccc(-n2cnc(Nc3cc(N4CCN(C5COC5)CC4)cc(C(F)(F)F)c3)n2)c1 :: ≤ 1
Cc1cc(Nc2ncn(-c3ccccc3)n2)cc(C2CCN(C3COC3)C2)c1 (stereo not shown) :: ≤ 1
CCc1cc(Nc2ncn(-c3ccnc(C)n3)n2)cc(N2CCN(C3COC3)CC2)c1 :: 100 to 1000
Cc1cc(Nc2ncn(-c3cc(C)ccn3)n2)cc(N2CCN(C3COC3)CC2)c1 :: 100 to 1000

Ask: Reported fold induction at 10 µM, compound COc1cc(Nc2ncn(-c3ccc(F)cc3)n2)cc(N2CCN(C3COC3)CC2)c1 : ____
Result: 1 to 10

Ask: Reported fold induction at 10 µM, compound Cc1cc(Nc2ncn(-c3cc(F)cc(F)c3)n2)cc(N2CCN(C(=O)C(F)(F)F)CC2)c1 : ____
Result: 100 to 1000

Ask: Reported fold induction at 10 µM, compound CCc1cc(Nc2ncn(-c3ccnc(F)c3)n2)cc(N2CCN(C3COC3)CC2)c1 : ____
Result: 10 to 100

Ask: Reported fold induction at 10 µM, compound CNC1CCN(c2cc(C)cc(Nc3ncn(-c4cc(F)cc(F)c4)n3)c2)C1 (stereo not shown) : ____
Result: ≤ 1

###

The entries below come with measured fold induction at 10 µM values attached.
system: primary rat mixed cortical cells; assay: In vitro myelination assay (MBP positive myelin strands, fold myelin pixels above background); type: cell-based; conditions: Rattus norvegicus, 10.0 μM compound; read-out: Fold myelin pixels above background relative to baseline of no added compound

Worked cases, answers included:
Fc1ccc(-n2cnc(Nc3cc(C(F)F)cc(N4CCN(C5COC5)CC4)n3)n2)cc1Cl [Compound 859] :: 1 to 10
Cc1cc(Nc2ncn(-c3ccc(F)c(F)c3)n2)cc(OCCN2CCOCC2)c1 [Compound 845] :: 1 to 10
N#Cc1cc(Nc2ncn(-c3cccc(F)c3)n2)cc(N2CCN(C3COC3)CC2)c1 [Compound 793] :: ≤ 1

Query compound follows.
Ask: Reported fold induction at 10 µM, compound Cc1cc(NC(=O)C2CC2)cc(Nc2ncn(-c3ccccc3)n2)c1 [Compound 1058] : ____
Result: 10 to 100
